Data origin: paper PMC9090415

# system name: P. falciparum apicoplast DNA polymerase (Pf-apPOL) (Plasmodium falciparum)
# Sequence (Q8ILY1 entry or part of it): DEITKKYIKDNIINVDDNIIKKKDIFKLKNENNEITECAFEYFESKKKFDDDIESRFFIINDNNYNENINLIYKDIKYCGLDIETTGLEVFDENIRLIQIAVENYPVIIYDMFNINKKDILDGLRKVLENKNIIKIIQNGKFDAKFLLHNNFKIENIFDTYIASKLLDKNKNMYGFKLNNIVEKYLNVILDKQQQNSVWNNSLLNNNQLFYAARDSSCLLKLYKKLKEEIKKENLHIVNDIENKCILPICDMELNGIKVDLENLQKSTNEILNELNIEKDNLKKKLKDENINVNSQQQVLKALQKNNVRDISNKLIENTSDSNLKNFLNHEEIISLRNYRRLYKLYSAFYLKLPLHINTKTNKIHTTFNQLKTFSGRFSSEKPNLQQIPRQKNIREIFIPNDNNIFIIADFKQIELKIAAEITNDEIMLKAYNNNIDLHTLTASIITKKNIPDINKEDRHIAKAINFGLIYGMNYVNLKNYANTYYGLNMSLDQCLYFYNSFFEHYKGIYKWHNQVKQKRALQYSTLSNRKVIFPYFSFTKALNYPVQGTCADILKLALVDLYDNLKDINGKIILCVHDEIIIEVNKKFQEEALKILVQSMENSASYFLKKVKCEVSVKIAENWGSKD
# assay summary: Fluorescence-based high-throughput DNA polymerase assay (molecular beacon), primary screen and dose-response;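 further: compound concentration given in µM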
# Format: biochemical
# test parameters: DRC-2; 40'; concentration 5
Label 1.0 when % inhibition Apol 40' is at or above 10%; anything below gets 0.0.

compound=NS(=O)(=O)c1ccc(NC(=O)c2ccc(N3C(=O)CCC3=O)cc2)cc1 discrete_label=1.0
compound=O=C(Nc1c2c(nn1-c1ccc(Oc3ccccc3)cc1)CSC2)c1ccco1 discrete_label=1.0
compound=COc1cc(Cl)c(C)cc1NC(=O)Cn1ccc2c(=O)[nH]ccc21 discrete_label=1.0
compound=O=C(Nc1cccc(Cl)c1)Nc1nnc(-c2ccncc2)s1 discrete_label=1.0
compound=O=C(O)c1cccc(N2N=C(C(F)(F)F)/C(=C/c3ccc(-c4ccccc4[N+](=O)[O-])o3)C2=O)c1 discrete_label=1.0
compound=COc1ccc(/C=C/c2cc(C(=O)O)c3ccccc3n2)cc1 discrete_label=1.0
compound=O=C(Cc1cc(=O)[nH]c(SCc2ccccc2)n1)Nc1ccc2c(c1)OCO2 discrete_label=0.0
compound=CC(=O)c1cc2c(N)c(/C(N)=N/C#N)sc2nc1C discrete_label=0.0
compound="CCC(C)NC(=O)c1cc(NC(C)=O)cc2nc(C)ccc12 (centres unmarked)" discrete_label=0.0
compound=CCOc1ccc(/C=C2\N=C(c3cc([N+](=O)[O-])cc([N+](=O)[O-])c3)OC2=O)cc1 discrete_label=1.0

###

# system name: bacteriophage T4 DNA polymerase (Enterobacteria phage T4)
# Construct: made in house
# Sequence (P04415 whole entry): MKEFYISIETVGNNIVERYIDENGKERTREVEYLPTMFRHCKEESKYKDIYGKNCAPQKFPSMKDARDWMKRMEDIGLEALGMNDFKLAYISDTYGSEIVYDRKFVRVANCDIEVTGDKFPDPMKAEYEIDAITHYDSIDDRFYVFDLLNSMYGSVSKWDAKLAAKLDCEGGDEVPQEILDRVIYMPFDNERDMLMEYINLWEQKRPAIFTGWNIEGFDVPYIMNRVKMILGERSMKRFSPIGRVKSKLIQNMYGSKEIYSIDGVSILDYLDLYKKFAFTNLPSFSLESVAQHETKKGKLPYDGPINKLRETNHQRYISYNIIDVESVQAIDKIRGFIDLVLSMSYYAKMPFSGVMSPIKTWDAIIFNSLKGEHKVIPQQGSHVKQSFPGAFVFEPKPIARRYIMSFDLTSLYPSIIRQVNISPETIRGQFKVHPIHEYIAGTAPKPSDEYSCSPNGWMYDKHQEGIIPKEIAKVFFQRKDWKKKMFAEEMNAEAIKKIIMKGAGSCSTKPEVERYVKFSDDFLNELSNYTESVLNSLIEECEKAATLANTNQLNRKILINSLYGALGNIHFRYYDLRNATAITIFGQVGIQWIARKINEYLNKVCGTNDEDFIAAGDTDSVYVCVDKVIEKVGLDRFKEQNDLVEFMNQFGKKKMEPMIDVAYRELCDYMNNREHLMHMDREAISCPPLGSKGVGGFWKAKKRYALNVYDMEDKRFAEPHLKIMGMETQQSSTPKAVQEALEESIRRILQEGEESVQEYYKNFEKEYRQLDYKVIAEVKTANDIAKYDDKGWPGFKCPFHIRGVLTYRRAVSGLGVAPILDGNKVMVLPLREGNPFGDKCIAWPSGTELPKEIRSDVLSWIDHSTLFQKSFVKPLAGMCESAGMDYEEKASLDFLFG
# assay summary: Counter-screen against bacteriophage T4 DNA polymerase
# Assay type: biochemical
# test parameters: DRC-1; read at 130'; concentration 40
result type: % inhibition T4 130' 40

compound="Cn1nc(-c2nc(-c3ccccc3)no2)c2c1CCN(C(=O)Cc1cccs1)C2 [Molecule 58]" system_name="bacteriophage T4 DNA polymerase (Enterobacteria phage T4)" result_type="% inhibition T4 130' 40" result=24%
compound="CC(C)CC(C(=O)O)N1C(=O)C2C3C=CC(C2C1=O)C1C(=O)N(C(CC(C)C)C(=O)O)C(=O)C31 (centres unmarked) [KU0193449]" system_name="bacteriophage T4 DNA polymerase (Enterobacteria phage T4)" result_type="% inhibition T4 130' 40" result=11.2312%
compound="COc1ccccc1CC(=O)N1CCc2c(nc3cc(-c4ccccc4Cl)[nH]n3c2=O)C1 [Molecule 49]" system_name="bacteriophage T4 DNA polymerase (Enterobacteria phage T4)" result_type="% inhibition T4 130' 40" result=-13%
compound="CC(=O)OCC1=C(C(=O)[O-])N2C(=O)[C@@H](NC(=O)Cc3cccs3)[C@H]2SC1.[Na+] [Molecule 73]" system_name="bacteriophage T4 DNA polymerase (Enterobacteria phage T4)" result_type="% inhibition T4 130' 40" result=38.0136%
compound="Cc1ccc(N2CCC(NC(=O)Cc3cccs3)C2=O)cc1C (centres unmarked) [Molecule 57, O=C(NC1CCN(C1=O)c1ccc(c(c1)C)C)Cc1cccs1]" system_name="bacteriophage T4 DNA polymerase (Enterobacteria phage T4)" result_type="% inhibition T4 130' 40" result=21.2189%
compound="Cc1nc(C)c2c(n1)N(CC1CCCCC1)C(=O)CC2 [KU0218606]" system_name="bacteriophage T4 DNA polymerase (Enterobacteria phage T4)" result_type="% inhibition T4 130' 40" result=-5.652%
compound="CC(=O)Nc1cc(C(=O)c2cccs2)nn(-c2ccc(Cl)cc2)c1=O [KU0267905]" system_name="bacteriophage T4 DNA polymerase (Enterobacteria phage T4)" result_type="% inhibition T4 130' 40" result=8.984%
compound="COc1ccc(C2CC(c3ccc(Cl)cc3Cl)Nc3nc(N)nn32)cc1OC (centres unmarked) [Molecule 43]" system_name="bacteriophage T4 DNA polymerase (Enterobacteria phage T4)" result_type="% inhibition T4 130' 40" result=6%
compound="Cc1cccc(-c2noc(C(=O)NNC(=O)C(Cl)(Cl)Cl)n2)c1 [KU0266208]" system_name="bacteriophage T4 DNA polymerase (Enterobacteria phage T4)" result_type="% inhibition T4 130' 40" result=2.252%
compound="Cn1nc(-c2nnc(-c3ccccc3F)o2)c2c1CCN(C(=O)c1ccccc1Cl)C2 [Molecule 34]" system_name="bacteriophage T4 DNA polymerase (Enterobacteria phage T4)" result_type="% inhibition T4 130' 40" result=0.922%
compound="O=C(CCc1csc(NC(=O)Nc2ccccc2)n1)Nc1nc2ccccc2s1 [KU0177354]" system_name="bacteriophage T4 DNA polymerase (Enterobacteria phage T4)" result_type="% inhibition T4 130' 40" result=15.4247%
compound="C#CC(C=CC)OC(=O)c1ccccc1C(=O)O (centres unmarked) [Molecule 61, CC=CC(OC(=O)c1ccccc1C(=O)O)C#C]" system_name="bacteriophage T4 DNA polymerase (Enterobacteria phage T4)" result_type="% inhibition T4 130' 40" result=13.4652%
compound="COc1ccc(/C=C/c2cc(C(=O)O)c3ccccc3n2)cc1 [Molecule 5, COc1ccc(cc1)/C=C/c1nc2ccccc2c(c1)C(=O)O]" system_name="bacteriophage T4 DNA polymerase (Enterobacteria phage T4)" result_type="% inhibition T4 130' 40" result=3.939%
compound="Nc1cc(Oc2ccc(O)c(N)c2)ccc1O [KU0034728]" system_name="bacteriophage T4 DNA polymerase (Enterobacteria phage T4)" result_type="% inhibition T4 130' 40" result=14.6568%
compound="CCCc1ccc(Oc2coc3cc(OC)ccc3c2=O)cc1 [KU0193249]" system_name="bacteriophage T4 DNA polymerase (Enterobacteria phage T4)" result_type="% inhibition T4 130' 40" result=4.723%
compound="N#Cc1c(O)nc(N2CCCCC2)nc1-c1ccc2c(c1)OCO2 [KU0083146]" system_name="bacteriophage T4 DNA polymerase (Enterobacteria phage T4)" result_type="% inhibition T4 130' 40" result=-2.723%
compound="Cc1cc2[nH]c(C(=O)Nc3ccc(F)cc3)c(CN3CCOCC3)c2s1 [Molecule 60]" system_name="bacteriophage T4 DNA polymerase (Enterobacteria phage T4)" result_type="% inhibition T4 130' 40" result=21.1797%
